Every entry's value here was drawn from ChEMBL document CHEMBL5303304.

- Tested on: Fibroblast
- ASSAY_METHOD_TEXT: Incucyte cell viability with human fibroblast; also: unitless GR value; below 1 slowed growth and below 0 cell loss
- Assay type: toxicity, cell-based
- TEST_SETTINGS: 12 h, 10 µM, compound concentration 10 uM, replicate number 1
ASSAY_READOUT: Growth Rate
// no unit string in output, number only

Here's what some known entries look like.
COMPOUND	VALUE_REPORTED
N#Cc1ccc(C#CC[C@@H](C#N)NC(=O)[C@@H]2CCCCN2)cc1F	0.89
CCC(=O)O[C@@H](OP(=O)(CCCCc1ccccc1)CC(=O)N1C[C@H](C2CCCCC2)C[C@H]1C(=O)[O-])C(C)C.[Na+] (stereo partly drawn)	0.72
COc1ccc(Cl)cc1[C@]1(F)C(=O)Nc2cc(C(F)(F)F)ccc21	-1
CSc1nc2c(c(=O)n(C)c(=O)n2C)n1C	0.58
CC(C)(O)[C@H]1CC[C@H](Nc2ccc3ncc(-c4cccc(C(F)(F)F)c4)n3n2)CC1	-0.53

Request: For the compound CN(C)CCCn1cc(C2=C(c3c[nH]c4ccccc34)C(=O)NC2=O)c2ccccc21 , what Growth Rate is on record?
Response: -1

Request: For the compound CC(C)S(=O)(=O)c1ccccc1Nc1nc(N[C@@H]2CCCN(CCCCCCCNC(=O)COc3cccc4c3C(=O)N(C3CCC(=O)N(C)C3=O)C4=O)C2)ncc1Cl (stereo partly drawn) , what Growth Rate is on record?
Response: -0.14

Request: For the compound CC(=O)Nc1nc2c(Oc3cc(-c4ccc(C(F)(F)F)cc4)ncn3)cccc2s1 , what Growth Rate is on record?
Response: -1

###

- Test system: HEK-293T
- ASSAY_METHOD_TEXT: Incucyte cell viability with HEK293T; also: unitless GR value; below 1 slowed growth and below 0 cell loss
- Type: toxicity, cell-based
- TEST_SETTINGS: human, 24 h, 10 µM, compound concentration 10 uM, replicate number 2
ASSAY_READOUT: Growth Rate
// no unit string in output, number only

Here's what some known entries look like.
COMPOUND	Growth Rate
CNc1nc(NCc2ncccn2)c2c(-c3ccc4ncccc4c3)c[nH]c2n1	0.86
CCC(=O)N[C@H]1CC[C@@H](C(=O)N(C)c2ccc(-c3nc4ccccc4o3)cc2)C1 [BI 99179]	0.69
c1ccc(C(OC2CCN(CCCc3nnn[nH]3)CC2)c2ccccc2)cc1	0.75
O=C(Nc1ccc(OC(F)(F)Cl)cc1)c1cnc(N2CC[C@@H](O)C2)c(-c2ccn[nH]2)c1 [ASCIMINIB]	0.19

Now examine the next entry.
Request: Item: N[C@@H]1CCCN(c2c(/C=C3\SC(=O)NC3=O)cccc2-c2ccccc2)C1 Test system: HEK-293T Read-out: Growth Rate Value: ?
Response: 0.97

###

Listing of entries alongside the reported Growth Rate.
- System: Fibroblast
- ASSAY_METHOD_TEXT: Incucyte cell viability with human fibroblast; also: unitless GR value; below 1 slowed growth and below 0 cell loss
- Assay type: toxicity, cell-based
- TEST_SETTINGS: 24 h, 10 µM, compound concentration 10 uM, replicate number 2

Request: For the compound O=C1CCCc2[nH]c(-c3ccnc(NCC4CC4)c3)c(Nc3ccccc3)c21 , what Growth Rate is on record?
Response: 0.88

Request: For the compound Cc1cc(-c2cc3ncccc3c(OC[C@H]3CCCNC3)n2)ccc1N(C)C.O=C(O)C(F)(F)F , what Growth Rate is on record?
Response: 0.85
